- testTarget: RXRγ (Mus musculus, UniProt P28705)
- Sequence (P28705 whole entry): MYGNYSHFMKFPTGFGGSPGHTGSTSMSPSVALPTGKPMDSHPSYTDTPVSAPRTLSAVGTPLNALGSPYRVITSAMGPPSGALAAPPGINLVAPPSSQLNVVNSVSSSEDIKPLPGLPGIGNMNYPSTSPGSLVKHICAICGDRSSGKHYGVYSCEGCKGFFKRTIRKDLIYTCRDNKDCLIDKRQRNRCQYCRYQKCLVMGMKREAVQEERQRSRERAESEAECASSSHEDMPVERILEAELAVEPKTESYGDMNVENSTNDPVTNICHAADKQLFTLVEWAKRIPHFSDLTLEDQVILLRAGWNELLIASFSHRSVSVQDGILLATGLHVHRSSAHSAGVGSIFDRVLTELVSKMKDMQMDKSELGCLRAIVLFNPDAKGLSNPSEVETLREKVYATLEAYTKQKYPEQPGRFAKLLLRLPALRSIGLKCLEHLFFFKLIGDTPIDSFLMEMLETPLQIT
- experimentalDetails: RXR binding, RXRγ
- condition: -v- tritiated LGD1069 and tritiated 9-cis retinoic acid
recordedMetric: Kd (nM)

Sample answers from the record:
*Q* What value of Kd has been reported for the following molecule? CCCCCCCOc1c(C(C)C)cc(C(C)C)cc1C(C)C/C=C/C(C)=C\C(=O)O (centres unmarked) [Compound 149]
*A* 42

*Q* What about this molecule? CCCCCCCOc1c(/C(C)=C/C=C/C(C)=C/C(=O)O)cc(C(C)C)cc1C(C)C [Compound 146]
*A* 116

P. CCCOc1cc2c(cc1C1CC1C/C=C/C(C)=C/C(=O)O)C(C)(C)CCC2(C)C (centres unmarked) [Compound 152]
Q. CCCOc1cc2c(cc1C1=C(/C=C/C(C)=C/C(=O)O)CCC1)C(C)(C)CCC2(C)C [Compound 158]
R. C=C(c1ccc(C(=O)O)cc1)c1cccc2cc3c(cc12)C(C)(C)CCC3(C)C [Compound 142]
*Q* Put these in order: smallest Kd first, largest last. Sort and list the labels as requested.
*A* P, R, Q
